# normalized growth values compiled below
assay: chemical genetic growth profiling, strain panel (AID 1159580);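 also: tested at 20 µM; growth read once vehicle control cultures reached saturation at 30 °C; 1 = growth at the plate median or of vehicle wells; lower values mean less growth of the strain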; conditions: S. cerevisiae deletion strains, growth OD, locus YPL256C, strain CLN2, stronger effect = lower value
The campaign covered roughly 5,500 compounds. About 2,000 (36%) were called active. Not shown: some 18% with an inconclusive outcome. Some of the results follow.
Number, no unit, nothing else.

Lab book: normalized growth of C[C@H]1CC2C([C@@H](O)C[C@@]3(C)C2CC[C@]3(O)C(=O)CO)[C@@]2(C)C=CC(=O)C=C12 (some centres not stated) noted as 1.1

---
Lab book: normalized growth of CC[N+](C)(CC)CCOC(=O)C(O)(c1ccccc1)C1CCCCC1 (configuration not stated) noted as 0.989

Lab book: normalized growth of COc1cc(NS(=O)(=O)c2ccc(N)cc2)nc(OC)n1 noted as 0.966

Lab book: normalized growth of O=C(CSc1nnnn1-c1ccccc1)c1ccccc1 noted as 0.758

Lab book: normalized growth of CSC1=NNC(c2nn(C)cc2Cl)S1 (configuration not stated) noted as 0.177

Lab book: normalized growth of CC1=C(C/C=C(\C)CCC[C@H](C)CCC[C@H](C)CCCC(C)C)C(=O)c2ccccc2C1=O noted as 0.944

Lab book: normalized growth of ClC1=C(Cl)C2(Cl)C3C4CC(C5OC45)C3C1(Cl)C2(Cl)Cl (configuration not stated) noted as 1.04

----------
assay: chemical genetic growth profiling, strain panel (AID 1159580);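 also: tested at 20 µM; growth read once vehicle control cultures reached saturation at 30 °C; 1 = growth at the plate median or of vehicle wells; lower values mean less growth of the strain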; conditions: S. cerevisiae deletion strains, growth OD, locus YFR010W, strain ubp6
Out of some 5,500 compounds screened, about 2,000 (36%) were called active. About 18% were inconclusive and are not listed. Cut-off read from the data, not from the text of the source: active = normalized growth mostly below about 0.91 (no sharp cut-off); inconclusive = no clear call, values can overlap the other calls; inactive = mostly above about 0.92. This is one part of the list.
// allowed return values: active, inactive

Per the assay record, what outcome was assigned to O=C1C=CC(=C(c2ccc(O)cc2)c2ccc(O)cc2)C=C1 ?
inactive

Per the assay record, what outcome was assigned to Cc1[nH]c(C)c(Cl)c(=O)c1Cl ?
inactive

Per the assay record, what outcome was assigned to OCCN1C[C@@H](O)[C@@H](O)C(O)C1CO (stereo partly specified) ?
inactive

Per the assay record, what outcome was assigned to Oc1cc(Cl)ccc1Oc1ccc(Cl)cc1Cl ?
active

Per the assay record, what outcome was assigned to NC(=O)C(c1ccccc1)(c1ccccc1)C1CCN(CCc2ccc3c(c2)CCO3)C1 (stereo unspecified) ?
inactive

Per the assay record, what outcome was assigned to CCOC(=O)C(=O)C1(C(=O)OCC)Oc2cc(OC)cc(OC)c2C(=O)C1c1ccccc1 (stereo unspecified) ?
inactive

----------
test: chemical genetic growth profiling, strain panel (AID 1159580);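 also: tested at 20 µM; growth read once vehicle control cultures reached saturation at 30 °C; 1 = growth at the plate median or of vehicle wells; lower values mean less growth of the strain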; conditions: S. cerevisiae deletion strains, growth OD, locus YJR043C, strain POL32, stronger effect = lower value
Screen size: about 5,500 compounds; about 2,000 (36%) were called active. Inconclusive results (about 18%) are left out. This is one part of the list.
Mark true only when normalized growth stays strictly below 1. Values equal to the cut-off are false.

Please review the following examples before continuing.
Record COc1ccc(NC(=O)c2cc(C(F)(F)F)cc(C(F)(F)F)c2)cn1 : is its normalized growth strictly below 1?
true

Record COc1cc2c(cc1OC)C(=O)OC2 : is its normalized growth strictly below 1?
false

Proceed to the following item.
Record COc1ccc(S(=O)(=O)Nc2ccccc2Oc2ccc(Cl)cc2Cl)cc1OC : is its normalized growth strictly below 1?
false
